TEST TARGET: Leucine aminopeptidase (Plasmodium falciparum (isolate 3D7)) (UniProt Q8IL11)
Sequence (Q8IL11 whole entry, looked up): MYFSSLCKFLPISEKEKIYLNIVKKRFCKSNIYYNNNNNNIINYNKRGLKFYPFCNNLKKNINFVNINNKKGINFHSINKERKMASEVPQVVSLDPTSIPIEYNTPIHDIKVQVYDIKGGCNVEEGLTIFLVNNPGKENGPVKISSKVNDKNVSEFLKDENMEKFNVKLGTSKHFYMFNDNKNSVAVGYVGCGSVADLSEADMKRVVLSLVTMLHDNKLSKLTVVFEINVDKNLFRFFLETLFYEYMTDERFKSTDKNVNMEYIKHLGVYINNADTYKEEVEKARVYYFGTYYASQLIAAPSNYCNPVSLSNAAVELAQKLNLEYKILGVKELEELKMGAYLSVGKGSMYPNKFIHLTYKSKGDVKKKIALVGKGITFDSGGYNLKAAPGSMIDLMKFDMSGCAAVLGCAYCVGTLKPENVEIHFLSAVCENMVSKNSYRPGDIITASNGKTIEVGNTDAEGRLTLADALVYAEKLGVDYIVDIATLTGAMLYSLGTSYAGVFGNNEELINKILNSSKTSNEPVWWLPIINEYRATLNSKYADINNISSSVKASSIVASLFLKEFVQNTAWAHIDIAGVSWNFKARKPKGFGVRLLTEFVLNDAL
TEST PROTOCOL: P. falciparum M17LAP inhibitors, primary screen, biochemical, fluorogenic H-Leu-NHMec substrate, 1536-well (AID 1619);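 further: plate controls were full reaction with DMSO carrier for no effect and no enzyme background for full effect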
ASSAY SETUP: recombinant M17LAP, H-Leu-NHMec fluorogenic kinetic assay; at 30 µM; hits give high values
About 830 (0.38%) of roughly 220,000 compounds were called active. These entries were drawn from the full list. Results with a measured potency or affinity are listed apart.
MEASURED METRIC: inhibition (%)
Numbers only here, please. The scale is %.

Please review the following examples before continuing.
| COMPOUND | UNIT SPEC | inhibition |
| --- | --- | --- |
| CC(C)Cn1c(N)c(C(=O)COC(=O)c2cc(F)cc(F)c2)c(=O)n(C)c1=O | % | 3.99 |
| O=C(C[n+]1ccc(/C=N/O)cc1)N(Cc1ccccc1)Cc1ccccc1 | % | 4.35 |
| COc1cccc(C(=O)NCC2CCN(c3ccc(S(=O)(=O)N4CCOCC4)cc3)CC2)c1 | % | 4 |
| COc1ccc(OCC(=O)OC2CCCN(C)C2)cc1 (stereo unspecified) | % | 3.48 |

Query block: Please give measured inhibition of the following entry: CCOC(=O)N1CCN(C(=O)/C(=C/c2cccs2)NC(=O)c2cccs2)CC1
Result block: 16.7

Query block: Recall and state the measured inhibition for C/C=C/C(=O)OCC(=O)Nc1ccc(SC(F)F)cc1 .
Result block: -1.79

Query block: Provide only the value of recorded inhibition for Cc1cccc(NC(=O)Cn2nc([N+](=O)[O-])c(Br)c2C)n1
Result block: -0.63

Query block: Input COc1ccc(C(=O)NC2CCN(C(=S)Nc3ccc(C)cc3)CC2)cc1 , output reported inhibition.
Result block: 3.35

Query block: Provide measured inhibition value, entry: COc1cccc(OCCn2cccc2/C=C2/C(=N)N3OC(C)=CC3=NC2=O)c1
Result block: 0.81

Query block: Find the measured inhibition of CC1=CC2=NC(=O)/C(=C\c3cccn3CCOc3ccccc3)C(=N)N2O1 and report it.
Result block: 8.69

Query block: Consider the compound CCOC(=O)COc1ccccc1/C=C1/NC(=O)NC1=O and give its recorded inhibition.
Result block: -4.69
